Overview of recorded binding signal for various binders
Biological target: d-enCas12a-Ultra (Acidaminococcus sp., UniProt U2UMQ6 1-1307, E174R;S542R;K548R;M537R;F870L;D908A;E993A;D1235A)
Test: Spec-seq (native PAGE EMSA with sequencing of bound and unbound); 25 mM Tris-HCl pH 7.4, 150 mM KCl, 5 mM MgCl2, 10% glycerol, 1 mM DTT, 40 ng/uL salmon sperm DNA; 400 nM Cas12a, 480 nM crRNA, 50 nM library, 37 C 1 h; native PAGE at room temperature; high values mean tight binding;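 further: relative affinity from the bound to unbound sequence frequency ratio in Spec-seq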
Settings: protein: recombinant
Return type: number; implicit unit lnKA.

Consider the following illustrative entries.
BINDER	binding signal [lnKA]
ACCG (dsDNA) DNA 1: GCTATCTAGTGCTCAGTACGCACTGACCGAGGAAACTTCTGGCAGGACCAGGTCATGAGATCGGAAGAGCACACGTCTGAACTCCAGTCA DNA 2: TGACTGGAGTTCAGACGTGTGCTCTTCCGATCTCATGACCTGGTCCTGCCAGAAGTTTCCTCGGTCAGTGCGTACTGAGCACTAGATAGC RNA: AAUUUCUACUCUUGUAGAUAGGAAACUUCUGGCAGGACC	-1.45
ACTG (dsDNA) DNA 1: GCTATCTAGTGCTCAGTACGCACTGACTGAGGAAACTTCTGGCAGGACCAGGTCATGAGATCGGAAGAGCACACGTCTGAACTCCAGTCA DNA 2: TGACTGGAGTTCAGACGTGTGCTCTTCCGATCTCATGACCTGGTCCTGCCAGAAGTTTCCTCAGTCAGTGCGTACTGAGCACTAGATAGC RNA: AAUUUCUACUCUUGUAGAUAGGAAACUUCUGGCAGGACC	-2.87

Query binder follows.
binding signal for TACT (dsDNA) DNA 1: GCTATCTAGTGCTCAGTACGCACTGTACTAGGAAACTTCTGGCAGGACCAGGTCATGAGATCGGAAGAGCACACGTCTGAACTCCAGTCA DNA 2: TGACTGGAGTTCAGACGTGTGCTCTTCCGATCTCATGACCTGGTCCTGCCAGAAGTTTCCTAGTACAGTGCGTACTGAGCACTAGATAGC RNA: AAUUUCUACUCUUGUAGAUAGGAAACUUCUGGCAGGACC ? -0.733
